tested on: NO production in IFN-γ/LPS-stimulated RAW 264.7 macrophages; test: NO suppression (Griess nitrite determination) in IFN-γ/LPS-stimulated RAW 264.7 macrophages; type: cell-based, murine; conditions: Mus musculus, RAW264.7, IFN-γ/LPS-stimulated RAW 264.7 cells; read-out: NO Inhibition IC50 (µM) ± S.E.M
experimentalReadout: IC50 (µM)

>>> reportedresult("COc1ccc(O)c(C(=O)/C=C(O)/C=C/c2ccccc2)c1")
25.9
>>> reportedresult("O=C(/C=C(O)/C=C/c1ccco1)c1cc(O)ccc1O")
75
>>> reportedresult("O=C(/C=C(O)/C=C/c1ccccc1Cl)c1ccccc1O")
27.3
>>> reportedresult("COc1ccc(/C=C/C(O)=C/C(=O)c2ccccc2O)cc1OC")
24.6
>>> reportedresult("O=C(/C=C(O)/C=C/c1cc(O)ccc1O)c1ccccc1O")
16.7

[a] O=C(/C=C(O)/C=C/c1cc(O)ccc1O)c1cc(Cl)ccc1O
[b] COc1ccc(O)c(C(=O)/C=C(O)/C=C/c2ccc(OC)c(OC)c2)c1
[c] O=C(/C=C(O)/C=C/c1ccc(O)c(O)c1)c1ccccc1O
[d] O=C(/C=C(O)/C=C/c1ccccc1)c1cc(Cl)ccc1O
[e] O=C(/C=C(O)/C=C/c1ccc(O)c(O)c1)c1cc(Cl)ccc1O
Ask: Rank order required: IC50, descending. Provide your answer as the labels ordered per the instruction.
Reply: d, a, b, c, e

[1] Cc1ccc(/C=C/C(O)=C/C(=O)c2cc(Cl)ccc2O)o1
[2] O=C(/C=C(O)/C=C/c1cccs1)c1ccc(O)cc1O
[3] COc1cc(/C=C/C(O)=C/C(=O)c2ccccc2O)cc(OC)c1OC
Ask: Order the records so the highest IC50 appears first and the lowest last. Answer by naming the labels in the order asked.
Reply: 2, 1, 3

[a] O=C(/C=C(O)/C=C/c1cccc(O)c1)c1cc(Cl)ccc1O
[b] O=C(/C=C(O)/C=C/c1ccc(O)cc1)c1cc(Cl)ccc1O
[c] O=C(/C=C(O)/C=C/c1cccs1)c1ccccc1O
Ask: Order the 3 compounds from highest to lowest IC50. List each label, following the requested order.
Reply: c, a, b

[A] O=C(/C=C(O)/C=C/c1cccc(Cl)c1)c1ccccc1O
[B] COc1cc(/C=C/C(=O)CC(=O)/C=C/c2ccc(O)c(OC)c2)ccc1O [Curcumin, curcumin, reference compound]
Ask: Could you point out whether the larger IC50 belongs to A or to B ? Answer format: the label of the selected item.
Reply: A
(A: 26.7 µM, B: 14.7 µM)

* * *

tested on: NO production in IFN-γ/LPS-stimulated RAW 264.7 macrophages; test: NO suppression (Griess nitrite determination) in IFN-γ/LPS-stimulated RAW 264.7 macrophages; assay type: cell-based, murine; settings: 50 µM test concentration; IFN-γ/LPS-stimulated RAW 264.7 cells; 50 µM
experimentalReadout: NO Inhibition at 50 µM (%) ± S.E.M
Expressed in %, but write only the number.

>>> reportedresult("O=C(/C=C(O)/C=C/c1cccc2ccccc12)c1ccccc1O")
85.8
>>> reportedresult("COc1ccc(/C=C/C(O)=C/C(=O)c2cc(OC)ccc2O)c(OC)c1")
79.5
>>> reportedresult("O=C(/C=C(O)/C=C/c1cccc(Cl)c1)c1cc(Br)ccc1O")
81.2

Ask: Can you look up the measured NO Inhibition at 50 µM (%) ± S.E.M of COc1cc(/C=C/C(O)=C/C(=O)c2ccccc2O)cc(OC)c1OC for me?
Reply: 96.6

Ask: Which NO Inhibition at 50 µM (%) ± S.E.M value belongs to Cc1ccc(/C=C/C(O)=C/C(=O)c2cc(Cl)ccc2O)o1 ?
Reply: 73.8

* * *

system: NO production in IFN-γ/LPS-stimulated RAW 264.7 macrophages; experiment: NO suppression (Griess nitrite determination) in IFN-γ/LPS-stimulated RAW 264.7 macrophages; type: cell-based, murine; settings: 50 µM test concentration; IFN-γ/LPS-stimulated RAW 264.7 cells; 50 µM
experimentalReadout: NO Inhibition at 50 µM (%) ± S.E.M
Your answer is read as %, so omit the unit and give the number.

For orientation, consider the following solved cases.
>>> reportedresult("COc1ccc(C(=O)/C=C(O)/C=C/c2ccccc2Cl)c(O)c1")
76.2
>>> reportedresult("COc1ccc(O)c(C(=O)/C=C(O)/C=C/c2cccc(Cl)c2)c1")
89.1
>>> reportedresult("O=C(/C=C(O)/C=C/c1ccc(O)cc1)c1ccccc1O")
91.5
>>> reportedresult("O=C(/C=C(O)/C=C/c1cccc(O)c1)c1cc(Cl)ccc1O")
95.9
>>> reportedresult("COc1ccccc1/C=C/C(O)=C/C(=O)c1ccccc1O")
91.8
>>> reportedresult("COc1ccc(O)c(C(=O)/C=C(O)/C=C/c2ccco2)c1")
72.1
>>> reportedresult("Cc1ccc(/C=C/C(O)=C/C(=O)c2cc(Cl)ccc2O)s1")
56.0
>>> reportedresult("O=C(/C=C(O)/C=C/c1ccc(O)c(O)c1)c1cc(Cl)ccc1O")
99.7

Ask: Request - read-out NO Inhibition at 50 µM (%) ± S.E.M | tested on NO production in IFN-γ/LPS-stimulated RAW 264.7 macrophages | compound COc1cccc(/C=C/C(O)=C/C(=O)c2ccccc2O)c1
Reply: 81.6

* * *

Measured IC50 values are reported for all entries that follow.
assay: Cell cytotoxicity determination (MTT assay); format: cell-based, murine; conditions: mouse, RAW 264.7 macrophage cells, RAW 264.7 cells, read-out: Cytotoxicity IC50 (µM) ± S.E.M

Ask: Data request, read-out IC50, for O=C(/C=C(O)/C=C/c1ccc(O)cc1)c1cc(Cl)ccc1O [Compound 86]
Reply: 89.1 µM

Ask: // lookup IC50 for COc1ccc(C(=O)/C=C(O)/C=C/c2ccccc2OC)c(O)c1 [Compound 48]
Reply: 88.5 µM

Ask: Recorded IC50 of COc1ccc(O)c(C(=O)/C=C(O)/C=C/c2ccccc2)c1 [Compound 58] , please.
Reply: > 100 µM

Ask: For the compound COc1ccc(/C=C/C(O)=C/C(=O)c2ccccc2O)cc1OC [Compound 8] , what IC50 is on record?
Reply: > 100 µM

Ask: Consider the compound O=C(/C=C(O)/C=C/c1ccc(O)c(O)c1)c1cc(Cl)ccc1O [Compound 88] and give its measured IC50.
Reply: 56.4 µM

Ask: Item under review: O=C(/C=C(O)/C=C/c1cccc(Br)c1)c1ccccc1O [Compound 4] . Reported IC50?
Reply: > 100 µM

Ask: Tell me the measured IC50 of O=C(/C=C(O)/C=C/c1ccccc1Cl)c1ccccc1O [Compound 2] , please.
Reply: > 100 µM

Ask: // lookup IC50 for O=C(/C=C(O)/C=C/c1cccc(Cl)c1)c1cc(Br)ccc1O [Compound 43]
Reply: > 100 µM

* * *

Quick reference for NO Inhibition at 50 µM (%) ± S.E.M among some molecules
test system: NO production in IFN-γ/LPS-stimulated RAW 264.7 macrophages; test: NO suppression (Griess nitrite determination) in IFN-γ/LPS-stimulated RAW 264.7 macrophages; assay type: cell-based, murine; conditions: 50 µM test concentration; IFN-γ/LPS-stimulated RAW 264.7 cells; 50 µM
// note: answer is a bare numeric in %

Recorded results for 4 molecules are shown here.
>>> reportedresult("COc1cccc(/C=C/C(O)=C/C(=O)c2ccc(OC)cc2O)c1")
57.5
>>> reportedresult("COc1ccc(C(=O)/C=C(O)/C=C/c2ccccc2OC)c(O)c1")
66.3
>>> reportedresult("O=C(/C=C(O)/C=C/c1cccc(Cl)c1)c1ccccc1O")
93.0
>>> reportedresult("O=C(/C=C(O)/C=C/c1cccs1)c1ccccc1O")
79.1

Ask: Given the entry O=C(/C=C(O)/C=C/c1ccccc1)c1ccc(O)cc1O , what NO Inhibition at 50 µM (%) ± S.E.M was observed with NO production in IFN-γ/LPS-stimulated RAW 264.7 macrophages?
Reply: 94.7

Ask: GET /values?readout=NO Inhibition at 50 µM (%) ± S.E.M&system=NO production in IFN-γ/LPS-stimulated RAW 264.7 macrophages&item= O=C(/C=C(O)/C=C/c1cccc(Cl)c1)c1cc(Cl)ccc1O
Reply: 66.6

Ask: Requested read-out NO Inhibition at 50 µM (%) ± S.E.M, target or system NO production in IFN-γ/LPS-stimulated RAW 264.7 macrophages, entry O=C(/C=C(O)/C=C/c1ccco1)c1ccccc1O
Reply: 82.0

* * *

tested on: NO production in IFN-γ/LPS-stimulated RAW 264.7 macrophages; assay: NO suppression (Griess nitrite determination) in IFN-γ/LPS-stimulated RAW 264.7 macrophages; assay type: cell-based, murine; settings: Mus musculus, RAW264.7, IFN-γ/LPS-stimulated RAW 264.7 cells; read-out: NO Inhibition IC50 (µM) ± S.E.M
experimentalReadout: IC50 (µM)

>>> reportedresult("O=C(/C=C(O)/C=C/c1ccco1)c1ccccc1O")
49
>>> reportedresult("O=C(/C=C(O)/C=C/c1ccccc1O)c1ccccc1O")
28.9
>>> reportedresult("COc1ccc(O)c(C(=O)/C=C(O)/C=C/c2ccccc2OC)c1")
27.4

[a] O=C(/C=C(O)/C=C/c1cccc(O)c1)c1ccc(O)cc1O
[b] Cc1ccc(/C=C/C(O)=C/C(=O)c2cc(Cl)ccc2O)s1
Ask: Two entries are listed, a and b . Which one carries the higher IC50? Your choice should be expressed through its label.
Reply: b
